Hey, just so you know, these numbers are from PubChem BioAssay (EPA / NIEHS).

- Read-out: solute carrier (SLCO1B1), SLCO1B1 (gene 10599)
- assay details: LTEA_HepaRG_SLCO1B1: Life Technologies and Expression Analysis (LTEA) Assay for solute carrier (SLCO1B1) using HepaRG (AID 2283530)
- condition: mRNA level, 48 h; actives raise or lower the signal
- Method: LTEA_HepaRG is a cell based, multiplexed-readout assay that uses HepaRG, a human liver cell line, with measurements taken at 48 hours after chemical dosing on a 96-well plate.LTEA_HepaRG_SLCO1B1 is one of 102 assay component(s) measured in the LTEA HepaRG cell culture assay. It is a marker of NR mediated transport.Data from the assay component LTEA_HepaRG_SLCO1B1 was analyzed into 1 endpoint. […]
Active and inactive are the calls of the source. The calls were made as follows: active = hit-call score of the fitted dose curve at least 0.9, where 1 is the maximum; inactive = score below 0.9.

- compound: "CC(C)N(C(=O)SCC(Cl)=C(Cl)Cl)C(C)C"
  AC50: "inactive"
- compound: "CCOP(=S)(OCC)OC(Cl)C(Cl)(Cl)Cl (stereo unspecified)"
  AC50: "inactive"
- compound: "CN(C)NC(=O)CCC(=O)O"
  AC50: "inactive"
- compound: "CCc1cccc(C)c1N(C(=O)CCl)C(C)COC (stereo unspecified)"
  AC50: "inactive"
- compound: "CC(COc1ccc(Oc2ccccc2)cc1)Oc1ccccn1 (stereo unspecified)"
  AC50: "inactive"
- compound: "CCOC(=O)CC(SP(=O)(OC)OC)C(=O)OCC (stereo unspecified)"
  AC50: "inactive"
- compound: "CON=C(C(=O)OC)c1ccccc1CON=C(C)c1cccc(C(F)(F)F)c1"
  AC50: "inactive"
- compound: "COP(=O)(OC)SCn1c(=O)oc2cc(Cl)cnc21"
  AC50: "inactive"
- compound: "N#CSCSC#N"
  AC50: "inactive"
- compound: "CCOP(=O)(OCC)Oc1cc(C)nc(C(C)C)n1"
  AC50: "inactive"
- compound: "CCCOc1nn(C(=O)NS(=O)(=O)c2ccccc2C(=O)OC)c(=O)n1C"
  AC50: "inactive"
- compound: "COc1ccc(C(=CC(=O)N2CCOCC2)c2ccc(Cl)cc2)cc1OC"
  AC50: "inactive"
- compound: "COc1cccc(C(=O)NN(C(=O)c2cc(C)cc(C)c2)C(C)(C)C)c1C"
  AC50: "inactive"
- compound: "CC(Oc1cccc(Cl)c1)C(=O)O (stereo unspecified)"
  AC50: "inactive"
- compound: "CCCSP(=O)(OCC)Oc1ccc(Br)cc1Cl (stereo unspecified)"
  AC50: "inactive"
- compound: "CCOP(=O)(NC(C)C)Oc1ccc(SC)c(C)c1 (stereo unspecified)"
  AC50: "inactive"
- compound: "CCNc1nc(Cl)nc(NC(C)(C)C#N)n1"
  AC50: "inactive"
- compound: "C#CCC1=C(C)C(OC(=O)C2C(C=C(C)C)C2(C)C)CC1=O (stereo unspecified)"
  AC50: "inactive"
- compound: "CCCSP(=O)(OCC)SCCC"
  AC50: "inactive"
- compound: "Nc1c(Cl)cc([N+](=O)[O-])cc1Cl"
  AC50: "50 µM (active)"
- compound: "FC(F)C(F)(F)OCC(Cn1cncn1)c1ccc(Cl)cc1Cl (stereo unspecified)"
  AC50: "70.4 µM (active)"
- compound: "CC[C@H](C)[C@H]1O[C@]2(C=C[C@@H]1C)C[C@@H]1C[C@@H](C/C=C(\\C)[C@@H](O[C@H]3C[C@H](OC)[C@@H](O[C@H]4C[C@H](OC)[C@@H](NC)[C@H](C)O4)[C@H](C)O3)[C@@H](C)/C=C/C=C3\\CO[C@@H]4[C@H](O)C(C)=C[C@@H](C(=O)O1)[C@]34O)O2"
  AC50: "19.9 µM (active)"
- compound: "Cc1cc(C2CC2)nc(Nc2ccccc2)n1"
  AC50: "inactive"
- compound: "CCC(=O)Nc1ccc(Cl)c(Cl)c1"
  AC50: "inactive"
- compound: "CCCCSP(=O)(SCCCC)SCCCC"
  AC50: "inactive"
- compound: "CCc1cnc(C2=NC(C)(C(C)C)C(=O)N2)c(C(=O)O)c1 (stereo unspecified)"
  AC50: "inactive"
- compound: "COc1cc(OC)nc(Sc2cccc(Cl)c2C(=O)O)n1"
  AC50: "inactive"
- compound: "CCCOCC(=Nc1ccc(Cl)cc1C(F)(F)F)n1ccnc1"
  AC50: "15.8 µM (active)"
- compound: "C=C(C)[C@H]1Cc2c(ccc3c2O[C@@H]2COc4cc(OC)c(OC)cc4[C@@H]2C3=O)O1"
  AC50: "12.3 µM (active)"
- compound: "CSc1nc(NC(C)C)nc(NC(C)C)n1"
  AC50: "50 µM (active)"
- compound: "Nc1nc(N)nc(NC2CC2)n1"
  AC50: "inactive"
- compound: "CCOP(=S)(Oc1cnc(C(C)(C)C)nc1)OC(C)C (stereo unspecified)"
  AC50: "inactive"
- compound: "O=c1ccc(=O)[nH][nH]1"
  AC50: "inactive"
- compound: "CC1=NNC(=O)N(/N=C/c2cccnc2)C1"
  AC50: "inactive"
- compound: "COP(=O)(OC)C(O)C(Cl)(Cl)Cl (stereo unspecified)"
  AC50: "inactive"
- compound: "C#CC(C)(C)NC(=O)c1cc(Cl)cc(Cl)c1"
  AC50: "inactive"

###

- assay details: ATG_MRE_CIS: Attagene CIS-FACTORIAL HepG2 Assay for human Metal Responsive Element (MRE) (AID 2282954)
- condition: HepG2 MRE cis-reporter transcription, Attagene multiplex; actives raise or lower the signal
- Experimental: ATG_CIS is a cell-based, multiplexed-readout assay that uses HepG2, a human liver cell line, with measurements taken at 24 hours after chemical dosing in a 24-well plate.ATG_MRE_CIS is one of 52 assay component(s) measured or calculated from the ATG_CIS assay. […] This assay endpoint, ATG_MRE_CIS, was analyzed with bidirectional fitting relative to DMSO as the negative control and baseline of activity. […]
Active and inactive are the calls of the source. The calls were made as follows: active = hit-call score of the fitted dose curve at least 0.9, where 1 is the maximum; inactive = score below 0.9.
Classes used: active, inactive

- molecule: "CC(C)=CC1C(C(=O)OCN2C(=O)C3=C(CCCC3)C2=O)C1(C)C (stereo not drawn)"
  label class: "active"
- molecule: "CCCCOC(=O)[C@@H](C)Oc1ccc(Oc2ccc(C#N)cc2F)cc1"
  label class: "inactive"
- molecule: "CC(COc1ccc(Oc2ccccc2)cc1)Oc1ccccn1 (stereo not drawn)"
  label class: "inactive"
- molecule: "CC(C1CC1)C(O)(Cn1cncn1)c1ccc(Cl)cc1 (stereo not drawn)"
  label class: "inactive"
- molecule: "CCCOc1nn(C(=O)NS(=O)(=O)c2ccccc2C(=O)OC)c(=O)n1C"
  label class: "inactive"
- molecule: "CN(C)[C@@H]1C(=O)C(C(N)=O)=C(O)[C@@]2(O)C(=O)C3=C(O)c4c(O)cccc4[C@@](C)(O)[C@H]3[C@H](O)[C@@H]12"
  label class: "inactive"
- molecule: "O=[N+]([O-])c1cc(C(F)(F)F)c(Cl)c([N+](=O)[O-])c1Nc1ncc(C(F)(F)F)cc1Cl"
  label class: "inactive"
- molecule: "CNc1cnn(-c2cccc(C(F)(F)F)c2)c(=O)c1Cl"
  label class: "inactive"

###

- tgt: rat Opioid Receptor, Non-selective Binding, Oprm1 (gene 25601) (UniProt P33535)
- Sequence (P33535 whole entry, looked up): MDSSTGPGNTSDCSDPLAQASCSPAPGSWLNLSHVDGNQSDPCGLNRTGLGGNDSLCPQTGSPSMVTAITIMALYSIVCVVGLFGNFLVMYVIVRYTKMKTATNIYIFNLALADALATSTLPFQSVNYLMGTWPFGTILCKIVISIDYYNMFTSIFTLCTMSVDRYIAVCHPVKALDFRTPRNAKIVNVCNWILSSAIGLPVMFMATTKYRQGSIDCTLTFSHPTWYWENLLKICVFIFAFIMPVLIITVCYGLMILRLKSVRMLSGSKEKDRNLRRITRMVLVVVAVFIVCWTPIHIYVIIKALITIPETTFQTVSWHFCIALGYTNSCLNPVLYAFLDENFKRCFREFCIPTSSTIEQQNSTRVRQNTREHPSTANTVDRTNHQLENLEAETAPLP
- assay details: NVS_GPCR_rOpiate_NonSelective: NovaScreen (NVS) G Protein-Coupled Receptor Assay for rat Opioid Receptor, Non-selective Binding (AID 2283318)
Records with an inconclusive call do not appear. Active and inactive are the calls of the source. How the source made its calls: active means hit-call score of the fitted dose curve at least 0.9, where 1 is the maximum; inconclusive means response in the unintended direction; inactive means score below 0.9.
Classes used: active, inactive

- smiles notation: "CCOP(=S)(OCC)Oc1ccc2c(C)c(Cl)c(=O)oc2c1"
  label class: "inactive"
- smiles notation: "COc1ccc(C(=CC(=O)N2CCOCC2)c2ccc(Cl)cc2)cc1OC"
  label class: "inactive"
- smiles notation: "CCCOCC(=Nc1ccc(Cl)cc1C(F)(F)F)n1ccnc1"
  label class: "active"

###

- Read-out: Insulin-like growth factor-binding protein 1 (IGFBP1), IGFBP1 (gene 3484)
- assay details: LTEA_HepaRG_IGFBP1: Life Technologies and Expression Analysis (LTEA) Assay for Insulin-like growth factor-binding protein 1 (IGFBP1) using HepaRG (AID 2283508)
- condition: mRNA level, 48 h; actives raise or lower the signal
The source made the active and inactive calls. How the source made its calls: active means hit-call score of the fitted dose curve at least 0.9, where 1 is the maximum; inactive means score below 0.9.
Outcomes: Y for active, N for inactive

- smiles notation: "CN1COCN(Cc2cnc(Cl)s2)C1=N[N+](=O)[O-]"
  label class: "N"
- smiles notation: "CN(C)[C@@H]1C(=O)C(C(N)=O)=C(O)[C@@]2(O)C(=O)C3=C(O)c4c(O)cccc4[C@@](C)(O)[C@H]3[C@H](O)[C@@H]12"
  label class: "N"
- smiles notation: "CCCCSP(=O)(SCCCC)SCCCC"
  label class: "Y"

###

- Read-out: Cytochrome P450 3A4 (Homo sapiens)
- assay details: CLD_CYP3A4_24hr: CellzDirect (CLD) Gene Expression Assay for xenobiotic metabolism (CYP3A4) at 24 hours (AID 2283689)
- Experimental: CLD_24hr is a cell-based, multiplexed-readout assay that uses hepatocyte, a human liver primary cell, with measurements taken at 24 hours after chemical dosing in a 96-well plate.CLD_CYP3A4_24hr is one of 16 assay component(s) measured or calculated from the CLD_24hr assay. […] Furthermore, this assay endpoint can be referred to as a primary readout. […]
Inconclusive results are not listed. The source made the active and inactive calls. How the source made its calls: active means hit-call score of the fitted dose curve at least 0.9, where 1 is the maximum; inconclusive means response in the unintended direction; inactive means score below 0.9.
Classes used: active, inactive

- compound: "CC(=NC#N)N(C)Cc1ccc(Cl)nc1"
  label class: "inactive"
- compound: "CNC(=O)ON=C(SC)C(=O)N(C)C"
  label class: "inactive"
- compound: "CC1=NNC(=O)N(/N=C/c2cccnc2)C1"
  label class: "inactive"
- compound: "CCCSP(=O)(OCC)SCCC"
  label class: "inactive"
- compound: "CCOP(=S)(OCC)SCCSCC"
  label class: "active"
- compound: "CCc1cccc(C)c1N(C(=O)CCl)C(C)COC (stereo not drawn)"
  label class: "active"
- compound: "CCC(=O)Nc1ccc(Cl)c(Cl)c1"
  label class: "inactive"
- compound: "CCCCN(CC)c1c([N+](=O)[O-])cc(C(F)(F)F)cc1[N+](=O)[O-]"
  label class: "active"
- compound: "C[N+]1(C)CCCCC1"
  label class: "active"
- compound: "CSc1nc(NC(C)C)nc(NC(C)C)n1"
  label class: "active"
- compound: "CN(C)NC(=O)CCC(=O)O"
  label class: "inactive"
- compound: "CCc1cccc(CC)c1N(COC)C(=O)CCl"
  label class: "active"
- compound: "CC(C)=CC1C(C(=O)OCN2C(=O)C3=C(CCCC3)C2=O)C1(C)C (stereo not drawn)"
  label class: "active"
- compound: "C#CC(C)(C)NC(=O)c1cc(Cl)cc(Cl)c1"
  label class: "inactive"
- compound: "CCNc1nc(Cl)nc(NC(C)(C)C#N)n1"
  label class: "active"
- compound: "CCCSP(=O)(OCC)Oc1ccc(Br)cc1Cl (stereo not drawn)"
  label class: "active"
- compound: "COP(=O)(NC(C)=O)SC (stereo not drawn)"
  label class: "inactive"
- compound: "CN(C)[C@@H]1C(=O)C(C(N)=O)=C(O)[C@@]2(O)C(=O)C3=C(O)c4c(O)cccc4[C@@](C)(O)[C@H]3[C@H](O)[C@@H]12"
  label class: "inactive"
- compound: "Cc1ccn2nc(S(=O)(=O)Nc3c(F)cccc3F)nc2n1"
  label class: "inactive"
- compound: "CC(C1CC1)C(O)(Cn1cncn1)c1ccc(Cl)cc1 (stereo not drawn)"
  label class: "active"
- compound: "CNC(=O)ON=C(C)SC"
  label class: "inactive"
- compound: "C#CCC1=C(C)C(OC(=O)C2C(C=C(C)C)C2(C)C)CC1=O (stereo not drawn)"
  label class: "active"
- compound: "CCOC(=O)COc1cc(-c2nn(C)c(OC(F)F)c2Cl)c(F)cc1Cl"
  label class: "active"
- compound: "CN(C)C(=O)Nc1cccc(C(F)(F)F)c1"
  label class: "active"
- compound: "CSC1=N[C@@](C)(c2ccccc2)C(=O)N1Nc1ccccc1"
  label class: "inactive"
- compound: "CCOP(=O)(SC(C)CC)N1CCSC1=O (stereo not drawn)"
  label class: "active"
- compound: "COP(=O)(OC)SCn1c(=O)oc2cc(Cl)cnc21"
  label class: "inactive"
- compound: "CCOC(=O)CC(SP(=O)(OC)OC)C(=O)OCC (stereo not drawn)"
  label class: "active"
